Entries and their half-life values follow.
# test_name: Rodent pharmacokinetic study
# Type: in vivo, Male Wistar rats
# test_parameters: rat, plasma; oral (gavage) 3 mg/kg; fasted male Wistar rats; mean ± S.D, n = 3
Structures can show the parent of a compound that is named as a salt.
Note: unit min is implicit; provide only the numeric part.

O=C1C[C@@H]2CCCN2C(=O)N1CCCCN1CCN(c2cccc3sccc23)CC1 [Example 4, oxalate]: 66
O=C1C[C@@H]2C[C@H]3C[C@H]3N2C(=O)N1CCCCN1CCN(c2nsc3ccccc23)CC1 [Example 11, oxalate]: 120
O=C1C[C@@H]2CCCN2C(=O)N1CCCCN1CCC(c2noc3cc(F)ccc23)CC1: 42
O=C1C[C@@H]2C[C@H](F)CN2C(=O)N1CCCCN1CCN(c2nsc3ccccc23)CC1 [Example 9, oxalate]: 84
O=C1C[C@@H]2CCCN2C(=O)N1CCCCN1CCN(c2nsc3ccccc23)CC1 [Example 2, oxalate]: 78

Dear colleague, I am looking for the recorded half-life of the following compound: O=C1C[C@H]2CCCN2C(=O)N1C[C@H]1CCCC[C@H]1CN1CCC(c2noc3cc(F)ccc23)CC1 [Example 29, oxalate]
54

State the recorded half-life for this entry: O=C1C[C@H]2CCCN2C(=O)N1C[C@H]1CCCC[C@H]1CN1CCN(c2nsc3ccccc23)CC1 [Example 27, oxalate]
108

* * *

# experimental_target: cloned human SERT receptor (Homo sapiens, UniProt P31645)
# Sequence (P31645 whole entry): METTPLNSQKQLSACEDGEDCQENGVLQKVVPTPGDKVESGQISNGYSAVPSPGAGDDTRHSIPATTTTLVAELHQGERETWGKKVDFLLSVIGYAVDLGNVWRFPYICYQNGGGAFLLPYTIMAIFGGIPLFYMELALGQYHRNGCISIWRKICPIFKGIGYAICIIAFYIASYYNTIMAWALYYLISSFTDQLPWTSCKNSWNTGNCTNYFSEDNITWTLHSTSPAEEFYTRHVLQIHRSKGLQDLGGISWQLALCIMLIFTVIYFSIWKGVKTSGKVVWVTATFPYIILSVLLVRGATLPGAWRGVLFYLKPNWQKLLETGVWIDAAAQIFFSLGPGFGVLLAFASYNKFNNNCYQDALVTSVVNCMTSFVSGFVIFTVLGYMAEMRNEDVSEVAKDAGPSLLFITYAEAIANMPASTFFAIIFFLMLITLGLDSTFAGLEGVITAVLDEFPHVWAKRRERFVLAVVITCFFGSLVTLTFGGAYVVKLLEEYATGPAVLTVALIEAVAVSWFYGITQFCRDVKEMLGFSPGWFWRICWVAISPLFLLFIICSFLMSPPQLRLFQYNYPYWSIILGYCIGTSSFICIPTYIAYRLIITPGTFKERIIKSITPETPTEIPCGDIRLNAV
# test_name: Determination of Ki at SERT receptor (SPA binding, [3H]-Citalopram)
# test_parameters: HEK293 recombinant cells; [3H]-Citalopram 2 nM; read-out: Ki hSERT
Where a name gives a salt, the structure may show the parent alone.
Items are presented alongside their recorded pKi.
Convention used: pKi is expressed as -log10 of the molar concentration.

Field: example entries. Status: answers known.
COC(=O)N1CCN2C(=O)N(CCCCN3CCN(c4nsc5ccccc45)CC3)C(=O)C[C@@H]2C1: 7.21
O=C(OCc1ccccc1)N1CCN2C(=O)N(CCCCN3CCC(c4noc5cc(F)ccc45)CC3)C(=O)CC2C1 (centres unmarked) [Example 22, fumarate]: 6.56
O=C1C[C@@H]2CCCCN2C(=O)N1CCCCN1CCN(c2nsc3ccccc23)CC1: 6.74

pKi lookup needed for O=C(OCc1ccccc1)N1CCN2C(=O)N(CCCCN3CCN(c4nsc5ccccc45)CC3)C(=O)C[C@@H]2C1 [Example 20, fumarate] , thanks.
6.83

What value of pKi has been recorded for this entry: O=C1C[C@@H]2CCCN2C(=O)N1CCCCN1CCN(c2cccc3sccc23)CC1 [Example 4, oxalate]
6.64

* * *

# reported Ki; entries follow
# experimental_target: hD2S (cloned human dopamine D2S receptor) (Homo sapiens)
# Construct: expressed in transfected cells; host or cells: CHO-K1
# Sequence (P14416 1-414 isoform P14416-2): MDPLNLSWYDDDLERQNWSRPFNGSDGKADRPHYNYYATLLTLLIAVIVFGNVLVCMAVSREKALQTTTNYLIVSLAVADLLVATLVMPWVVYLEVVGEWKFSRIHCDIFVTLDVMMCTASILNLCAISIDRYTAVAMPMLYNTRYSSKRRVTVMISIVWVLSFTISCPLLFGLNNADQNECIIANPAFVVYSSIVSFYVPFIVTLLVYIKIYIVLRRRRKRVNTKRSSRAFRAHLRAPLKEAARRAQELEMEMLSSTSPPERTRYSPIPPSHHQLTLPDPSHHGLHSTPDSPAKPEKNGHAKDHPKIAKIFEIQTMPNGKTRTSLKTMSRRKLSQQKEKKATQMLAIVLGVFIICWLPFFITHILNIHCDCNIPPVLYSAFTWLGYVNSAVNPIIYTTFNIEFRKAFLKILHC
# test_name: Determination of Ki at D2S receptor (radioligand binding, [3H]-Raclopride)
# test_parameters: CHO-K1 recombinant cells; [3H]-Raclopride 4 nM; read-out: Ki hD2S
Counter-ions that a name gives are not always drawn.
Supply the numeric figure in nM, leaving out any unit text.

COC(=O)N1CCN2C(=O)N(CCCCN3CCN(c4nsc5ccccc45)CC3)C(=O)C[C@@H]2C1 [Example 33]: 1.7

Recorded Ki for O=C1C[C@H]2CCCN2C(=O)N1C[C@H]1CCCC[C@H]1CN1CCC(c2noc3cc(F)ccc23)CC1 [Example 29, oxalate] , please?
0.2

# Ki lookup, item O=C(OCc1ccccc1)N1CCN2C(=O)N(CCCCN3CCC(c4noc5cc(F)ccc45)CC3)C(=O)CC2C1 (centres unmarked) [Example 22, fumarate]
2.5

Please look up its Ki: O=C1C[C@@H]2CCCN2C(=O)N1CCCCN1CCC(c2noc3ccccc23)CC1 [Example 42, oxalate]
37.3

GET /values?readout=Ki&item= COC(=O)N1CCN2C(=O)N(CCCCN3CCN(c4nsc5ccccc45)CC3)C(=O)CC2C1 (centres unmarked) [Example 34, fumarate]
2.4

For the molecule shown here, COc1ccc2[nH]cc(C3CCN(CCCCN4C(=O)C[C@@H]5CCCCN5C4=O)CC3)c2c1 [Example 16] , give the reported Ki.
59.1

Could you tell me which Ki is on file for O=C1C[C@@H]2CCCCN2C(=O)N1CCCCN1CCC(c2noc3cc(F)ccc23)CC1 [Example 13] ?
2.5

What value of Ki has been reported for the following molecule? CC(C)N1CCN2C(=O)N(CCCCN3CCN(c4nsc5ccccc45)CC3)C(=O)C[C@H]2C1 [Example 40, fumarate]
5

* * *

# experimental_target: cloned human 5-HT1A receptor (Homo sapiens, UniProt P08908)
# Construct: expressed in transfected cells; host or cells: HEK293-EBNA
# test_name: Determination of Ki at 5-HT1A receptor (radioligand binding, [3H]-8-Hydroxy DPAT)
# test_parameters: HEK293-EBNA recombinant cells; [3H]-8-Hydroxy DPAT 0.8 nM; read-out: Ki h5-HT1A
pKi: −log10 of the molar value. Counter-ions that a name gives are not always drawn.
Returns criterion met if the recorded pKi is greater than or equal to 9, and criterion not met otherwise.

Below are worked cases with known answers.
O=C1C[C@@H]2CCCN2C(=O)N1CCCN1CCC(c2noc3cc(F)ccc23)CC1: criterion not met
CC(C)N1CCN2C(=O)N(CCCCN3CCN(c4nsc5ccccc45)CC3)C(=O)C[C@H]2C1 [Example 40, fumarate]: criterion met
COC(=O)N1CCN2C(=O)N(CCCCN3CCN(c4nsc5ccccc45)CC3)C(=O)C[C@@H]2C1: criterion met
O=C1C[C@H]2CCCN2C(=O)N1C[C@H]1CCCC[C@H]1CN1CCN(c2nsc3ccccc23)CC1 [Example 27, oxalate]: criterion not met
O=C1C[C@@H]2CCCN2C(=O)N1CCCN1CCN(c2nsc3ccccc23)CC1: criterion not met

Item COC(=O)N1CCN2C(=O)N(CCCCN3CCC(c4noc5cc(F)ccc45)CC3)C(=O)C[C@@H]2C1 [Example 36, fumarate] with pKi of 9 or above?
criterion not met

Can O=C1C[C@@H]2CCCN2C(=O)N1CCCCN1CCN(c2cccc3sccc23)CC1 [Example 4, oxalate] be said to have pKi at or above 9?
criterion met

* * *

# test_name: Rodent pharmacokinetic study
# Assay type: in vivo, Male Wistar rats
# test_parameters: rat, plasma; oral (gavage) 3 mg/kg; fasted male Wistar rats; mean ± S.D, n = 3
Structures can show the parent of a compound that is named as a salt.
measured_parameter: Cmax (ng/mL)
Report only the number, with the unit ng/mL understood.

Answered cases to consult:
O=C1C[C@H]2CCCN2C(=O)N1C[C@H]1CCCC[C@H]1CN1CCN(c2nsc3ccccc23)CC1 [Example 27, oxalate]: 186
O=C1C[C@@H]2CCCN2C(=O)N1CCCCN1CCN(c2cccc3sccc23)CC1 [Example 4, oxalate]: 77
O=C1C[C@@H]2C[C@H](F)CN2C(=O)N1CCCCN1CCN(c2nsc3ccccc23)CC1 [Example 9, oxalate]: 164

# next molecule below
Please give the measured Cmax for this molecule: O=C1C[C@H]2CCCN2C(=O)N1C[C@H]1CCCC[C@H]1CN1CCC(c2noc3cc(F)ccc23)CC1 [Example 29, oxalate]
37

* * *

pKi listing for selected compounds.
# experimental_target: cloned human SERT receptor (Homo sapiens, UniProt P31645)
# test_name: Determination of Ki at SERT receptor (SPA binding, [3H]-Citalopram)
# test_parameters: HEK293 recombinant cells; [3H]-Citalopram 2 nM; read-out: Ki hSERT
Where a name gives a salt, the structure may show the parent alone.
In textbook form, pKi equals minus log to base ten of the concentration in mol/L.

O=C1C[C@@H]2CCCN2C(=O)N1CCCN1CCN(c2nsc3ccccc23)CC1: 6.04
O=C1C[C@@H]2C[C@H](F)CN2C(=O)N1CCCCN1CCN(c2nsc3ccccc23)CC1 [Example 9, oxalate]: 6.08

Requested read-out: pKi. Entry: `O=C1C[C@@H]2CCCN2C(=O)N1CCCN1CCC(c2c[nH]c3ccc(F)cc23)CC1`
6.53

* * *

# experimental_target: cloned human 5-HT1A receptor (Homo sapiens, UniProt P08908)
# Construct: expressed in transfected cells; host or cells: HEK293-EBNA
# Sequence (P08908 1-422): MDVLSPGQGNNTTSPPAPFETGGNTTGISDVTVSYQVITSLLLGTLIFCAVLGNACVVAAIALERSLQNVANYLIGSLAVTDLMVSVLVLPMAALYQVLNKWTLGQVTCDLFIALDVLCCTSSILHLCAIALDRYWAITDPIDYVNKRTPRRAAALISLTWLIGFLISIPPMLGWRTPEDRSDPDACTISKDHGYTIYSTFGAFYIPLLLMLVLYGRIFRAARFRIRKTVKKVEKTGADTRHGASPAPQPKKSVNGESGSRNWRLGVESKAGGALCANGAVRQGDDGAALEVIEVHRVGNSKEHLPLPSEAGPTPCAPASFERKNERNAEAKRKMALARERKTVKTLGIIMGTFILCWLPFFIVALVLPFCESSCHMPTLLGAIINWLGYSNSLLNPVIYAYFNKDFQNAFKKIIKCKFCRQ
# test_name: Determination of Ki at 5-HT1A receptor (radioligand binding, [3H]-8-Hydroxy DPAT)
# test_parameters: HEK293-EBNA recombinant cells; [3H]-8-Hydroxy DPAT 0.8 nM; read-out: Ki h5-HT1A
# Procedure: Compounds were tested according to the following procedure. […] Reactions were carried out in buffer with pH 7.4 containing 50 mM Tris-HCl, 0.5 mM EDTA, 10 mM MgSO4, 0.1% Ascorbic acid for 2 h at r.t. […] Radioactivity trapped onto the filters was determined and compared to the control values in order to ascertain any interactions of the test compound(s) with cloned human 5-HT1A receptor binding site.
Where a name gives a salt, the structure may show the parent alone.
Reported pKi values for the following molecules.
A value of pKi is the negative decimal logarithm of a concentration given in moles per litre.

Worked set:
O=C1C[C@@H]2CCCN2C(=O)N1CCCCN1CCC(c2c[nH]c3ccc(F)cc23)CC1 [Example 7, oxalate]: 8.74
COc1ccc2[nH]cc(C3CCN(CCCCN4C(=O)C[C@@H]5CCCCN5C4=O)CC3)c2c1: 9.22
O=C1C[C@@H]2COCCN2C(=O)N1CCCCN1CCN(c2nsc3ccccc23)CC1 [Example 18, oxalate]: 9.10

Then this molecule:
Requested field: pKi. Item: O=C1C[C@@H]2C[C@H](F)CN2C(=O)N1CCCCN1CCN(c2nsc3ccccc23)CC1 [Example 9, oxalate]
9.05
